The measured values listed here are drawn from patent US20090118286A1.

Assay: log P determination by HPLC (EEC Directive 79/831 Annex V.A8, gradient method)
Format: physicochemical
Attribute: Physical data (logP)
Could you respond with only the numeric value?

These recorded examples may help you get a feel for the data.
[[record]]
compound = "O=C(O)/C=C/c1c(-c2ccc(F)cc2Cl)nc2sc(C(F)(F)C(F)F)nn12 [VA134]"
recorded_measurement = 3.01

[[record]]
compound = "O=C(/C=C/c1c(-c2cccc(Cl)c2)nc2sc(C(F)(F)F)nn12)NCC1CC1 [Example 0086]"
recorded_measurement = 3.81


Value of Physical data (logP) reported for the compound COCC(C)NC(=O)/C=C/c1c(-c2ccc(Cl)cc2)nc2sc(C(F)(F)F)nn12 (stereo not shown) [Example 0018] is 4.27

Value of Physical data (logP) reported for the compound CC(ONC(=O)/C=C/c1c(-c2ccc(Cl)cc2)nc2sc(C(F)(F)F)nn12)c1ccccc1 (stereo not shown) [Example 0062] is 4.18

---

Assay: log P determination by HPLC (EEC Directive 79/831 Annex V.A8, gradient method)
Type: physicochemical
ENDPOINT NAME: Physical data: log P
Could you respond with only the numeric value?

Value of Physical data: log P reported for the molecule CCC(NC(=O)C=Cc1c(-c2ccccc2C)nc2sc(C(F)(F)F)nn12)c1ccccc1 (stereo not shown) is 4.18

---

Test: log P determination by HPLC (EEC Directive 79/831 Annex V.A8, gradient method)
Assay type: physicochemical
ENDPOINT NAME: Physical data: log P
Could you respond with only the numeric value?

[[record]]
compound = "CC(NC(=O)/C=C/c1c(-c2cccc(C(F)(F)F)c2)nc2sc(C(F)(F)F)nn12)C(F)(F)F (stereo not shown)"
recorded_measurement = 4.27

[[record]]
compound = "O=C(/C=C/c1c(-c2cccc(C(F)(F)F)c2)nc2sc(C(F)(F)F)nn12)N1CCOCC1"
recorded_measurement = 3.55

[[record]]
compound = "COCC(C)NC(=O)/C=C/c1c(-c2cccc(C(F)(F)F)c2)nc2sc(C(F)(F)F)nn12 (stereo not shown)"
recorded_measurement = 3.68

[[record]]
compound = "CCN(CC)C(=O)/C=C/c1c(-c2cccc(C(F)(F)F)c2)nc2sc(C(F)(F)F)nn12"
recorded_measurement = 4.42

[[record]]
compound = "O=C(/C=C/c1c(-c2ccc(F)cc2)nc2sc(C(F)(F)F)nn12)N1CCCCC1"
recorded_measurement = 3.85

[[record]]
compound = "CCC(NC(=O)C=Cc1c(-c2ccc(F)cc2)nc2sc(C(F)(F)F)nn12)c1ccccc1 (stereo not shown)"
recorded_measurement = 4.18


Then there is this compound:
Value of Physical data: log P reported for the compound CCC(NC(=O)C=Cc1c(-c2cccc(C(F)(F)F)c2)nc2sc(C(F)(F)F)nn12)c1ccccc1 (stereo not shown) is 4.72

---

Attribute: Physical data (logP)
Assay: log P determination by HPLC (EEC Directive 79/831 Annex V.A8, gradient method)
Format: physicochemical
Could you respond with only the numeric value?

[[record]]
compound = "CNC(=O)/C=C/c1c(-c2ccc(Cl)cc2)nc2sc(C(F)(F)F)nn12"
recorded_measurement = 2.88

[[record]]
compound = "Cc1ccccc1-c1nc2sc(C(F)(F)F)nn2c1/C=C/C(=O)O"
recorded_measurement = 2.77

[[record]]
compound = "O=C(O)/C=C/c1c(-c2ccc(F)cc2Cl)nc2sc(C(F)(F)C(F)(F)F)nn12"
recorded_measurement = 3.31

[[record]]
compound = "CC(COc1ccccc1)NC(=O)/C=C/c1c(-c2ccc(Cl)cc2)nc2sc(C(F)(F)F)nn12 (stereo not shown)"
recorded_measurement = 4.51

[[record]]
compound = "O=C(/C=C/c1c(-c2cccc(Cl)c2)nc2sc(C(F)(F)F)nn12)NOCC1CC1"
recorded_measurement = 3.63


Value of Physical data (logP) reported for the compound CC(NC(=O)/C=C/c1c(-c2ccccc2Cl)nc2sc(C(F)(F)F)nn12)C(F)(F)F (single isomer, unassigned) [Example 0184] is 3.63

Value of Physical data (logP) reported for the compound `O=C(/C=C/c1c(-c2ccc(Cl)cc2)nc2sc(C(F)(F)F)nn12)NC1CCCCC1` is 4.37

Value of Physical data (logP) reported for the compound `O=C(/C=C/c1c(-c2cccc(Cl)c2)nc2sc(C(F)(F)F)nn12)N1CCCCC1` is 4.37

Value of Physical data (logP) reported for the compound CC(C)C(C)NC(=O)/C=C/c1c(-c2cccc(Cl)c2)nc2sc(C(F)(F)F)nn12 (stereo not shown) is 4.32
